- target_under_test: Protein arginine N-methyltransferase 1 (Homo sapiens)
- measurement_description: human PRMT1 activity-probe blockers – biochemical, fluorescence polarization, primary screen (AID 652257)
- condition_set: recombinant PRMT1, activity-based probe fluorescence polarization; at 2.79 µM
The campaign covered roughly 370,000 compounds. About 4,800 (1.3%) were called active.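 Rule for the calls: active = inhibition above about 21% made by adding two undisclosed values (limit read from the data); inactive = the rest.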 The entries come from a sample that favours actives as a whole.
Classes used: active, inactive

compound | assigned_class
Cc1ccc(S(=O)(=O)NCCC(c2ccccc2)c2ccccc2)cc1C(=O)O | inactive
CCOc1ccc(-n2c(SCC(=O)Nc3cc(C)c(NC(=O)c4ccccc4)cc3OC)nnc2-c2cccc(Cl)c2)cc1 | inactive
Cc1nc2sc(C(c3ccco3)N3CCOCC3)c(O)n2n1 (stereo not given) | active
Oc1c(C(c2ccco2)N2CCC3(CC2)OCCO3)sc2ncnn12 (stereo not given) | active
O=C(c1c[nH]c2ccccc12)N1CCC(Oc2cccnc2)CC1 | inactive
Cc1ccc(C(c2sc3nc(C)nn3c2O)N2CCN(c3ccccc3)CC2)cc1 (stereo not given) | inactive
CC(NCCc1ccc(S(N)(=O)=O)cc1)C(=O)NCc1ccccc1 (stereo not given) | inactive
O=C(Oc1ccc(Br)cc1C(=S)N1CCOCC1)c1cccc([N+](=O)[O-])c1 | inactive
O=C(Oc1ccccc1C(=S)N1CCCCC1)c1cc([N+](=O)[O-])cc([N+](=O)[O-])c1 | active
O=C(Oc1ccccc1Cl)c1ccc(N2CCOCC2)c([N+](=O)[O-])c1 | inactive

---

- target_under_test: Protein arginine N-methyltransferase 1 (Homo sapiens)
- measurement_description: human PRMT1 activity-probe blockers – biochemical, fluorescence polarization, primary screen (AID 652257)
- condition_set: recombinant PRMT1, activity-based probe fluorescence polarization; at 2.79 µM; hits give high values
The campaign covered roughly 370,000 compounds. About 4,800 (1.3%) were called active. Many of the other results were omitted from the sample, so actives are more common in it than they were.
List of inhibition values.

molecule | inhibition / %
COc1cccc(N2CC(NS(=O)(=O)c3cccs3)CC2=O)c1 (stereo not given) | 0.96
O=C(CSc1nc2sc3c(c2c(=O)n1-c1ccccc1)CCCC3)NN=Cc1ccc(OCc2ccccc2)cc1 | 0.97
O=C(O)c1c(NC(=O)N2CCCC2)sc2c1CCCC2 | 4.25
CCOC(=O)C(NC(=O)CC(C)C)(Nc1sc2c(c1C(N)=O)CCCC2)C(F)(F)F (stereo not given) | 0.14
C[C@@H]1COc2cccc(N3CCCC3)c2S(=O)(=O)N1C | 10.8

---

List of inhibition values.
- target_under_test: Protein arginine N-methyltransferase 1 (Homo sapiens)
- measurement_description: human PRMT1 activity-probe blockers – biochemical, fluorescence polarization, primary screen (AID 652257)
- condition_set: recombinant PRMT1, activity-based probe fluorescence polarization; at 2.79 µM; hits give high values
The whole screen tested about 370,000 compounds, of which about 4,800 (1.3%) were called active. This excerpt belongs to a sample that is enriched for actives.

compound | inhibition, %
O=C(CN1CCN(c2ccc(O)cc2)CC1)Nc1ccc(-c2ccccc2)cc1 | 21.2
CC(=O)Nc1cc(-c2ccccc2F)cn2c(-c3cccc(C(F)(F)F)c3)cnc12 | 2.67
COc1ccc(S(=O)(=O)N2CCCCC2)cc1NC(=O)COc1ccccc1 | 2
COc1cc(NC(=O)C2=CC(c3ccco3)=NS(=O)(=O)N2C)cc(OC)c1OC | 1.92
Cc1ccc(/C=C/C(=O)Nc2cc(S(=O)(=O)N3CCCCCC3)ccc2OCC(F)(F)F)o1 | 24.7
CC(c1c[nH]c2ccccc12)c1c(-c2ccccc2)n(C)c2ccccc12 (stereo not given) | 8.87
CCCOc1ccc(C(=O)C(CCC(CNCC)C(=O)c2ccc(OCCC)cc2)CNCC)cc1 (stereo not given) | -1.8
Cc1ccccc1CN1C[C@@H]2C[C@@H](c3ccc4nsnc4c3)N3CCC[C@@]23C1=O | 1.62
Cc1ccc(-n2c(COc3ccccc3)nnc2SCC(=O)Nc2ccc3c(c2)OCCO3)cc1 | 1.77
COc1cc(NC(=S)N2CCCC(C)C2)c(OC)cc1Cl (stereo not given) | 40.8
COc1cc(NC(=S)N2CCCC(C)C2)cc(OC)c1OC (stereo not given) | 5.72
COc1ccc(C(=O)CSc2nnc(-c3cnccn3)n2-c2ccc(C)cc2)cc1 | -1.24
COc1ccc(CN2CCN(Cc3cn(C)nc3-c3ccccc3)CC2CCO)c(C)c1C (stereo not given) | 0.32
Cc1ccc(CN2CCCCC(NC(=O)C3CCCCC3)C2=O)cc1 (stereo not given) | -3.29
N#CCC[C@H]1CC[C@]2(CCCN(Cc3ccc(Cl)cc3)C2)O1 | 1.93
O=C(c1cccc(C(F)(F)F)c1)N1CC[C@H]2[C@H](CCCN2Cc2cc(F)cc(F)c2)C1 | -3.31
CC(=O)OC12CCCN(C1)/C(=C/c1ccncc1)C2 (stereo not given) | -0.73
COCCNC(=O)Nc1ccc2nc(-c3ccco3)c(-c3ccco3)nc2c1 | 88.9
Cc1c(C(C)c2ccccc2O)[nH]c2ccccc12 (stereo not given) | 2.86
CCCC(NC(=O)c1ccccc1)c1nc2ccccc2n1Cc1ccc(C(=O)OC)o1 (stereo not given) | -1.43
COc1ccc(NC(=O)C(C)SCc2ccccc2)cc1 (stereo not given) | 1.07
COc1ccc(CSc2nnc(SCC(=O)Nc3ccccc3C(F)(F)F)s2)cc1 | -1.07
O=C(O)/C=C/C(=O)NNc1ccc([N+](=O)[O-])cc1 | 59
COc1ccc(N(CC(=O)N2CCOCC2)S(=O)(=O)c2ccccc2)cc1Cl | 3.25
O=C(CSCc1ccc([N+](=O)[O-])cc1)NCCSCc1ccccc1 | -0.87
O=C(Nc1ccnn1C1CCN(C/C=C/c2ccc(F)cc2)CC1)C1CCCC1 | -2.06
Cc1ccc(Cc2cnc(N)s2)o1 | 40.4
CCCCCCCCNS(=O)(=O)/C=C/c1cc(C)ccc1CNC(=O)OC(C)(C)C | -0.82
CCOC(=O)[C@]12CCCC=C1N(Cc1ccc(OC)cc1)C(=O)[C@@H]2CC(=O)N1CCOCC1 | -1.02
Cc1cc(C)cc(NC(=O)N2CCC(N(C)CCC(C)C)CC2)c1 | -0.26
COC(=O)c1cccc(Cn2ccc3ccc(-c4ccc5ccn(C(=O)C6CCCCC6)c5c4)cc32)c1 | 3.39
CS(=O)(=O)N(CC(=O)N1CCN(Cc2ccccc2)CC1)c1ccc2c(c1)OCCO2 | -1.51
CCOCCCNC(=S)N1CCC(NC(=O)C2CCCCC2)CC1 | 4.18
COc1ccc(C(=O)NC(=O)CSc2nnc(-c3ccco3)n2-c2ccccc2)cc1 | 4.1
CCC(CO)Nc1cccc2c1S(=O)(=O)N(Cc1cn(Cc3ccccc3C(F)(F)F)nn1)Cc1ccccc1O2 (stereo not given) | 0.43

---

- target_under_test: Protein arginine N-methyltransferase 1 (Homo sapiens)
- measurement_description: human PRMT1 activity-probe blockers – biochemical, fluorescence polarization, primary screen (AID 652257)
- condition_set: recombinant PRMT1, activity-based probe fluorescence polarization; at 2.79 µM
Screen size: about 370,000 compounds; about 4,800 (1.3%) were called active.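 The calls were made as follows: active = inhibition above about 21% made by adding two undisclosed values (limit read from the data); inactive = the rest.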 The entries come from a sample that favours actives as a whole.
Classes used: active, inactive

molecule | assigned_class
COc1ccc(CCNCc2c(-c3ccccc3)n(C)c3ccccc23)cc1 | inactive
Cc1cc(C)cc(C(=O)NC2C(=O)N3C(C(=O)O)=C(CSc4nnc(C)s4)CSC23)c1 (configuration not stated) | active
COc1ccc(C2CC=C(C(=O)O)C(c3ccccc3F)N2S(=O)(=O)c2ccc(C)cc2)cc1OC (configuration not stated) | inactive
COc1ccc(CCNC2=CC(=O)CC(C)(C)C2)cc1 | inactive
Cc1ccc2nc(SCc3nnc(-c4ccccc4[N+](=O)[O-])o3)c(C#N)cc2c1 | inactive
CCCCC(=O)NC(c1ccc(OC)c(OC)c1)c1ccc2cccnc2c1O (configuration not stated) | inactive
N[C@@H](Cc1ccccc1)C(=O)N1CCC[C@@H]1C(=O)N1CCC2CCN(S(=O)(=O)c3ccccc3)CC21 (some centres not stated) | inactive
CCOc1ccc(C(=O)CCN2CCOCC2)cc1 | active
CC1CCN(C(=O)C2CCN(S(=O)(=O)N3CCC4(CC3)OCCO4)CC2)CC1 | inactive
Cc1nnc(SCC2=C(C(=O)O)N3C(=O)C(NC(=O)Cn4nc(C)c(Cl)c4C)C3SC2)s1 (configuration not stated) | active
CC1CCN(C(=O)c2ncn3c2C(=O)N[C@@H](C)C3)CC1 | inactive
Cc1nnc(SCc2cc(=O)[nH]c(N3CCN(Cc4ccccc4)CC3)n2)s1 | inactive
CC1CCN(C(=S)NC(=O)c2ccccc2Br)CC1 | inactive
Cc1cccc(N2CCN(C(=O)c3cc4c(=O)[nH]c5ccccc5c4n3C)CC2)c1C | inactive
COC(=O)c1cccnc1NC(=S)NC(C)C | inactive
CCn1c(C)c(C)c2cc(C(=O)N3CCN(c4cccc(C)c4C)CC3)ccc21 | inactive
Cc1cccc(N2CCN(C(=O)/C=C/c3ccco3)CC2)c1C | active
C#CCCN([C@H](C(=O)OC)C(C)C)S(=O)(=O)c1ccc(F)cc1Br | inactive
CCC(=O)Nc1ccc2c(c1)C(=O)N(C)[C@H]1CC[C@H](CC(=O)NCCOC)O[C@@H]1CO2 | inactive
CCOc1ccc(C(=O)CCC(=O)NC2=NCCS2)cc1 | inactive
COc1cccc(Cn2cc(COC(=O)Nc3ccc(F)cc3)nn2)c1 | inactive
CC(=O)NC(CC(=O)Nc1nc(-c2ccccc2)c(C(C)=O)s1)c1ccccc1 (configuration not stated) | inactive
COc1ccc([C@H]2OC(=O)C[C@H]2C(=O)N2CCN(c3ccccc3F)CC2)cc1OC | inactive
Cc1ccccc1CN1CCCCC(NC(=O)c2cccc(C#N)c2)C1=O (configuration not stated) | inactive
COc1ccc(-n2c(SCC(=O)Nc3ccc4cn[nH]c4c3)nnc2-c2cccnc2)cc1 | inactive
CCOc1ccc(-c2nc(C)sc2CC(=O)O)cc1 | inactive
O=C(COc1ccc([N+](=O)[O-])cc1Cl)Nc1ccc2[nH]c(=O)[nH]c2c1 | inactive
CC(=O)N1CCc2cc(S(=O)(=O)NCCC(=O)N3CCCC3)ccc21 | inactive
Cc1n[nH]c(=O)c2c(NC(=O)COC(=O)c3ncc(Cl)c(Cl)c3Cl)oc(C)c12 | inactive
O=S(=O)(c1ccc2c(c1)OCCCO2)N1CCN(S(=O)(=O)c2c(F)cccc2F)CC1 | inactive
CN(C)c1ccc(C(CC(=O)O)C(=O)O)cc1 (configuration not stated) | active
CCOC(=O)N1CCN(C(c2cccnc2)c2ccc3cccnc3c2O)CC1 (configuration not stated) | active
CN1C(=O)c2cccc3c(N)ccc(c23)C1=O | active
Cc1ccc(-c2ccc(/C=C(\C#N)C(N)=S)o2)c([N+](=O)[O-])c1 | active
c1coc(CCNc2ncnc3ccc(-c4ccc5c(c4)OCO5)cc23)c1 | inactive
COC(=O)C1CN(CCc2ccccc2)CCS(=O)(=O)N1Cc1ccc(F)cc1 (configuration not stated) | inactive
CCOc1ccc(C(=O)CCC(=O)Nc2ccncc2)cc1 | inactive

Hey, just so you know, these numbers are from PubChem BioAssay AID652257.
